Measured Target: hA3AR (Homo sapiens)
Sequence (P0DMS8 whole entry): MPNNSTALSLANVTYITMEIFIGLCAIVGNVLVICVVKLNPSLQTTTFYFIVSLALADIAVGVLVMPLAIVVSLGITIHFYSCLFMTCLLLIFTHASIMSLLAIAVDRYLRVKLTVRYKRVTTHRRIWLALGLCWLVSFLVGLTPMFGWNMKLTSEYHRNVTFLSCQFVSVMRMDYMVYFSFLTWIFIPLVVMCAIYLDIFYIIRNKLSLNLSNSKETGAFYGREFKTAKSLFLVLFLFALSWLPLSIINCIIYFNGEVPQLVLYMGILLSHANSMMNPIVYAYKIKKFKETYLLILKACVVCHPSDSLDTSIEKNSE
Experiment Summary: cAMP functional assay at the hA3AR expressed in CHO cells
Format: cell-based
Reported Conditions: CHO, read-out: maximal stimulation of cAMP formation / % activation relative to the full agonist 16 (= 100%)

- Mol Smiles: "CCCCC#Cc1nc(NC2CCCC2)c2ncn([C@H]3[C@H](O)[C@H](O)[C@@H]4C[C@@H]43)c2n1"
  Emax at 10 µM [%]: 27.1
- Mol Smiles: "CCCCC#Cc1nc(NC2CC2)c2ncn([C@H]3[C@H](O)[C@H](O)[C@@H]4C[C@@H]43)c2n1"
  Emax at 10 µM [%]: 19.8
- Mol Smiles: "CCCCC#Cc1nc(NCC)c2ncn([C@H]3[C@H](O)[C@H](O)[C@@H]4C[C@@H]43)c2n1"
  Emax at 10 µM [%]: 15.5
- Mol Smiles: "CCCCC#Cc1nc(NCc2cccc(F)c2)c2ncn([C@H]3[C@H](O)[C@H](O)[C@@H]4C[C@@H]43)c2n1"
  Emax at 10 µM [%]: 18.9

----------
Measured Target: hA3AR (Homo sapiens)
Experiment Summary: cAMP functional assay at the hA3AR expressed in CHO cells
Type: cell-based
Reported Conditions: cAMP assay, CHO cells

- Compound: "CCCCC#Cc1nc(NCc2cccc(Br)c2)c2ncn([C@H]3[C@H](O)[C@H](O)[C@@H]4C[C@@H]43)c2n1 [4g]"
  functional behaviour at hA3AR: "antagonists"
- Compound: "CCCCC#Cc1nc(NCc2cccc(I)c2)c2ncn([C@H]3[C@H](O)[C@H](O)[C@@H]4C[C@@H]43)c2n1 [4f]"
  functional behaviour at hA3AR: "antagonists"
- Compound: "CCCCC#Cc1nc(NCc2cccc(Cl)c2)c2ncn([C@H]3[C@H](O)[C@H](O)[C@@H]4C[C@@H]43)c2n1 [4h]"
  functional behaviour at hA3AR: "antagonists"

----------
Measured Target: hA3AR (Homo sapiens)
Experiment Summary: cAMP functional assay at the hA3AR expressed in CHO cells
Format: cell-based
Reported Conditions: cAMP assay, CHO cells
Result Type: functional behaviour at hA3AR

- Mol Smiles: "CCCCC#Cc1nc(NC2CCCC2)c2ncn([C@H]3[C@H](O)[C@H](O)[C@@H]4C[C@@H]43)c2n1"
  Experimental Value: "partial agonists"
- Mol Smiles: "CCCCC#Cc1nc(NC2CC2)c2ncn([C@H]3[C@H](O)[C@H](O)[C@@H]4C[C@@H]43)c2n1"
  Experimental Value: "partial agonists"
- Mol Smiles: "CCCCC#Cc1nc(NCC)c2ncn([C@H]3[C@H](O)[C@H](O)[C@@H]4C[C@@H]43)c2n1"
  Experimental Value: "partial agonists"
